# target_or_test_system: NSD2 [1-1365] (Homo sapiens (Human), UniProt O96028)
# Sequence (O96028 whole entry): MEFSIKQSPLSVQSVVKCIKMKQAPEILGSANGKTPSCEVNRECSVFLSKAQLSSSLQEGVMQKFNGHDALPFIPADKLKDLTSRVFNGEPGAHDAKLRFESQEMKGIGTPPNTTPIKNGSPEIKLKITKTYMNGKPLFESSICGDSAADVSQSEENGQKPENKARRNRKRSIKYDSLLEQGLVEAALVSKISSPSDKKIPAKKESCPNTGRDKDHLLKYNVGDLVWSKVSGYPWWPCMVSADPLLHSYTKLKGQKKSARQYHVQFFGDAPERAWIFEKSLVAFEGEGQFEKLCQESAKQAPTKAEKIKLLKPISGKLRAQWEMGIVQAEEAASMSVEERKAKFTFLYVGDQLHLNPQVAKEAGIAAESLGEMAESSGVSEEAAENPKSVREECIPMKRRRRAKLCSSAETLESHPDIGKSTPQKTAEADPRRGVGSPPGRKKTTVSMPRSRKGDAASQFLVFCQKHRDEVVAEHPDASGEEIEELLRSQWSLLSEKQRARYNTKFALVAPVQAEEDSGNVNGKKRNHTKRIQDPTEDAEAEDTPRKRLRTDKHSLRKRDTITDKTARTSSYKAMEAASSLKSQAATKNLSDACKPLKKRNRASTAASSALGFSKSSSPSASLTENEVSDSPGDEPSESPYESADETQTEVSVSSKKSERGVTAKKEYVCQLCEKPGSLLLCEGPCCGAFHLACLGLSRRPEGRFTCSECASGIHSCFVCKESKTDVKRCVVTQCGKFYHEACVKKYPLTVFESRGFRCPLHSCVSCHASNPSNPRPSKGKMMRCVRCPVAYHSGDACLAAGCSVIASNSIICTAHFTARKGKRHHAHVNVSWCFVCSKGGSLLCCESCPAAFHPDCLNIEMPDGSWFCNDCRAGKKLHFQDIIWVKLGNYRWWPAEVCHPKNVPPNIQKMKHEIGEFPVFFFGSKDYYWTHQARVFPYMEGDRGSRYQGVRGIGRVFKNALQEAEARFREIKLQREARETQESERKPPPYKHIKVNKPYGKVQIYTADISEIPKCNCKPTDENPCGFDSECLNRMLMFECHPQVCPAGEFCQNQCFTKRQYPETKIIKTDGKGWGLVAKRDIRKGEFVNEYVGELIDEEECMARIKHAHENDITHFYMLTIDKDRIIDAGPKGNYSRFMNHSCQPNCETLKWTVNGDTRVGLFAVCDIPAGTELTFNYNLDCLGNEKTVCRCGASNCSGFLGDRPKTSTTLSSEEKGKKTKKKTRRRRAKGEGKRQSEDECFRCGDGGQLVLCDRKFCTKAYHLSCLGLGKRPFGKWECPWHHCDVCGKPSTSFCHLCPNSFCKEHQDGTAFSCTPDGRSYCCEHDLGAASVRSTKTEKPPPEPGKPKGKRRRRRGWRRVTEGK
# procedure_text: LC-MS/MS-based NSD2 enzymatic assay (SAH production)
# Format: biochemical
# stated_conditions: NSD2 biochemical activity, class symbols; read-out: NSD2 IC50
pIC50: −log10 of the molar value.
pIC50 for assorted compounds

>>> print(df.to_string())
                                   compound  value_reported
0  Nc1ncnc2c1ncn2Cc1cc(-c2ccc(F)c(F)c2)ncc1N1CCC[C@](N)(COC(F)F)C1    6.00 to 8.00
1  Nc1ncnc2c1ncn2Cc1cc(-c2ccc3c(c2)CCO3)ncc1N1CC[C@@H](F)[C@@H](N)C1    6.00 to 8.00
2  Cn1ccc(C(=O)C2(N)CCCN(c3cnc(-c4ccc(F)c(F)c4)cc3Cn3cnc4c(N)ncnc43)C2)n1 (stereo not shown)    6.00 to 8.00

Ask: # get_value(readout='pIC50', item= COC[C@@]1(N)CCCN(c2cnc(-c3ccc(OC)c(F)c3)cc2Cn2cnc3c(N)ncnc32)C1 [Example 46] )
Reply: 8.00 to 9.00

Ask: Cool, now Nc1ncnc2c1ncn2Cc1cc(-c2cccc(F)c2)ncc1N1CCC[C@](N)(CC(=O)O)C1
Reply: 8.00 to 9.00

Ask: Cool, now Nc1ncnc2c1ncn2Cc1cc(-c2ccc(F)c(Cl)c2)ncc1N1CCC[C@](N)([C@H](O)C(F)F)C1
Reply: 6.00 to 8.00

Ask: Cool, now COC[C@@]1(N)CCCN(c2cnc(-c3ccc(F)cc3F)cc2Cn2cnc3c(N)ncnc32)C1
Reply: 8.00 to 9.00

* * *

# target_or_test_system: NSD2 [1-1365] (Homo sapiens (Human), UniProt O96028)
# procedure_text: LC-MS/MS-based NSD2 enzymatic assay (SAH production)
# Assay type: biochemical
# stated_conditions: NSD2 biochemical activity, class symbols; read-out: NSD2 IC50
pIC50: −log10 of the molar value.
pIC50 for assorted molecules

In [3]: df
Out[3]:
                                   molecule                     target_or_test_system  value_reported
0  Nc1ncnc2c1ncn2Cc1cc(-c2ccc(NC(=O)CCBr)cc2)ncc1N1CCCC(N)(CC(F)F)C1 (centres unmarked) [Example 64]  NSD2 [1-1365] (Homo sapiens (Human), UniProt O96028)    6.00 to 8.00
1  Nc1ncnc2c1ncn2Cc1cc(-c2cc(F)c(OC(F)F)cc2F)ncc1N1CCC[C@](N)([C@H](O)C(F)F)C1 [Example 128]  NSD2 [1-1365] (Homo sapiens (Human), UniProt O96028)    8.00 to 9.00
2  Nc1ncnc2c1ncn2Cc1cc(-c2cc(F)cc(C(F)F)c2F)ncc1N1CCC[C@](N)([C@@H](O)C(F)F)C1 [Example 154]  NSD2 [1-1365] (Homo sapiens (Human), UniProt O96028)    6.00 to 8.00
3  Nc1ncnc2c1ncn2Cc1cc(-c2ccc(F)c(F)c2)ncc1N1CCC[C@](N)(C(=O)NC2CCOCC2)C1 [Example 82]  NSD2 [1-1365] (Homo sapiens (Human), UniProt O96028)    6.00 to 8.00

Ask: # get_value(readout='pIC50', item= COc1ccc(-c2cc(Cn3cnc4c(N)ncnc43)c(N3CCC[C@](N)(C(=O)N(C)C)C3)cn2)cc1F [Example 80] )
Reply: 8.00 to 9.00

Ask: Cool, now COc1ccc(-c2cc(Cn3cnc4c(N)ncc(Cl)c43)c(N3CCC[C@@H](N)C3)cn2)cc1F [Example 19]
Reply: 6.00 to 8.00

Ask: Cool, now COc1ccc(-c2cc(Cn3cnc4c(N)ncnc43)c(N3C[C@H](N)CC(F)(F)C3)cn2)cc1F [Example 16]
Reply: 6.00 to 8.00

* * *

# Test system: cellular H3K36me2 level in multiple myeloma cell line KMS11 (t(4;14)+)
# procedure_text: H3K36me2 cellular ELISA assay in KMS11-Par line
# Format: cell-based
# stated_conditions: Homo sapiens, KMS-11; KMS11-Par line, ELISA, 72 hours; read-out: H3K36me2 ELISA in KMS11-Par
experimental_readout: IC50 (nM)

The examples below pair each entry with its known result.
In [3]: df
Out[3]:
                                   compound  experimental_readout  measurement_unit  value_reported
0  Cc1cccc([C@@]2(N)CCCN(c3cnc(-c4ccc(F)c(F)c4)cc3Cn3cnc4c(N)ncnc43)C2)[n+]1[O-]                  IC50                nM            7650
1  COc1ccc(-c2cc(Cn3cnc4c(N)ncnc43)c(N3CCC[C@](N)(c4cccc(Cl)n4)C3)cn2)cc1F                  IC50                nM             387
2  COc1ccc(-c2cc(Cn3cnc4c(N)ncnc43)c(N3CCC[C@](N)(c4ccc(F)c(Cl)n4)C3)cn2)cc1                  IC50                nM            2570
3  Nc1ncnc2c1ncn2Cc1cc(-c2ccc(F)c(F)c2)ncc1N1CCC[C@](N)(c2nc(Cl)ccc2F)C1                  IC50                nM            2180
4  Nc1ncnc2c1ncn2Cc1cc(-c2ccc(F)c(Cl)n2)ncc1N1CCC[C@](N)([C@@H](O)C(F)F)C1                  IC50                nM            8970
5  Nc1ncnc2c1ncn2Cc1cc(-c2cc(F)c(F)cc2F)ncc1N1CCC[C@](N)([C@@H]2COCCO2)C1                  IC50                nM             954
6  COc1ccc(-c2cc(Cn3cnc4c(N)ncnc43)c(N3CCC[C@](N)(c4ccc(F)c(Cl)n4)C3)cn2)cc1F                  IC50                nM            1910
7  CCn1ccc(C2(N)CCCN(c3cnc(-c4ccc(F)cc4)cc3Cn3cnc4c(N)nccc43)C2)n1 (centres unmarked)                  IC50                nM            2200
8  Nc1ncnc2c1ncn2Cc1cc(-c2ccc(F)c(F)c2)ncc1N1CCC[C@](N)(c2cccc(CF)n2)C1                  IC50                nM             169
9  Nc1ncnc2c1ncn2Cc1cc(-c2ccc(F)c(F)c2)ncc1N1CCCC(N)(c2cnccn2)C1 (centres unmarked)                  IC50                nM            3540

A = Nc1nccc2c1ncn2Cc1cc(-c2ccc(F)c(F)c2)ncc1N1CCCC(N)(c2cccc(F)n2)C1 (centres unmarked)
B = Nc1ncnc2c1ncn2Cc1cc(-c2ccc(F)c(F)c2)ncc1N1CCCC(N)(c2cccnc2)C1 (centres unmarked)
Ask: Recorded IC50 values differ for A and B ; which one is higher? To answer, give the label that identifies your chosen option.
Reply: B
(B: 33300 nM, A: 1330 nM)

* * *

IC50 for assorted compounds
# Tested on: cellular H3K36me2 level in multiple myeloma cell line KMS11 (t(4;14)+)
# procedure_text: H3K36me2 cellular ELISA assay in KMS11-Par line
# Type: cell-based
# stated_conditions: Homo sapiens, KMS-11; KMS11-Par line, ELISA, 72 hours; read-out: H3K36me2 ELISA in KMS11-Par
Report the value in µM with no unit label.

>>> print(df.to_string())
                                   compound  measurement_unit  value_reported
0  Cc1ccc(-c2cc(Cn3cnc4c(N)ncnc43)c(N3CCCC(N)(c4cccc(Cl)n4)C3)cn2)cn1 (centres unmarked)                µM            7.49
1  COc1ccc(Cl)nc1[C@@]1(N)CCCN(c2cnc(-c3ccc(F)c(F)c3)cc2Cn2cnc3c(N)ncnc32)C1                µM            9.98
2  COc1cc(F)c(-c2cc(Cn3cnc4c(N)ncnc43)c(N3CCC[C@](N)(c4cccc(Cl)n4)C3)cn2)cc1F                µM           0.815
3  Nc1ncnc2c1ncn2Cc1cc(-c2ccc(F)c(F)c2)ncc1N1CCC[C@](N)([C@H](O)C(F)(F)F)C1                µM            9.83

Now for a further compound.
Ask: # get_value(readout='IC50', item= Nc1ncnc2c1ncn2Cc1cc(-c2ccc(F)c(F)c2)ncc1N1CCCC(N)(C=C(F)F)C1 (centres unmarked) )
Reply: 9.44
